These entries and their values trace back to patent US10227357B2.

// IC50 lookup, one value per entry
Molecular target: c-kit kinase (Homo sapiens, UniProt P10721)
Construct: The c-kit (or kinase domain thereof) is an active kinase in AlphaScreen; poly-Histidine tag (in-house protein only) (cleaved yes); host or cells: E. coli BL21(DE3)RIL, co-expressed with PTP1B
Sequence (P10721 26-976): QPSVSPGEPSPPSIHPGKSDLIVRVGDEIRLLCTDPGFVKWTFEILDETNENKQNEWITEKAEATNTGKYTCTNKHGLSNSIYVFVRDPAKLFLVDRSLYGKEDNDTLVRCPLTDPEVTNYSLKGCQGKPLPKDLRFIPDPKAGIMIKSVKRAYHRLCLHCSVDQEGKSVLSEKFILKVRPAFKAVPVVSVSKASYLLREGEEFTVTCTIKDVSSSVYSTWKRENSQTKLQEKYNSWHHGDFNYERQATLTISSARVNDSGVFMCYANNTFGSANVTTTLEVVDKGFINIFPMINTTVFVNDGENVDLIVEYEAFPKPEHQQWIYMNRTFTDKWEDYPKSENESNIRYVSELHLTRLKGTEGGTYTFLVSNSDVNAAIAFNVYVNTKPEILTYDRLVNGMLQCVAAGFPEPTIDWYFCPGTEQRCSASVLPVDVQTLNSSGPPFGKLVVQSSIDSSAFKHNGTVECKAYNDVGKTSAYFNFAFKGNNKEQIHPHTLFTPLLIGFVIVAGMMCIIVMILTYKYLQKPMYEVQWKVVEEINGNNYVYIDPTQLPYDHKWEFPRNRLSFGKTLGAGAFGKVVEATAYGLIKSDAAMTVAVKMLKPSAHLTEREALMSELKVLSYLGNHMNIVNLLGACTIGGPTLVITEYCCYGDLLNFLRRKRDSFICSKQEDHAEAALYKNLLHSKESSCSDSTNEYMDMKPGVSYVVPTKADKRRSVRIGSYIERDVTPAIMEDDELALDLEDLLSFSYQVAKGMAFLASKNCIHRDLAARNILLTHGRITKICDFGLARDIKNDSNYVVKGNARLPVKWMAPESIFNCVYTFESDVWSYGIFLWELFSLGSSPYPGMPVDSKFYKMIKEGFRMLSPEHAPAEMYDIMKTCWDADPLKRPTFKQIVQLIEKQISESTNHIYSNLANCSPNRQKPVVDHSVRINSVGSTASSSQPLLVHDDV
Experiment: c-Kit biochemical assay, AlphaScreen, 10 μM ATP
Details: c-kit biochemical inhibitory activity; read-out: Biochemical activity (IC50 μM) Kit

Worked examples follow.
Cc1cc2c(-c3ccc(NS(=O)(=O)c4cccc(OC(F)(F)F)c4)cc3)ncnc2[nH]1 [P-0284]    10 to 200 µM
C[C@@H]1CN(c2ncnc3[nH]c(-c4ccncc4)cc23)CCN1C(=O)NCc1ccc(F)cc1 [P-0061]    1 to 10 µM
O=C(Nc1ccc(OC(F)(F)F)cc1)N1CCN(c2ncnc3[nH]c(-c4ccccc4F)cc23)CC1 [P-0067]    0.0001 to 1 µM
CCCC(=O)NC1CCN(c2ncnc3[nH]ccc23)CC1 [P-0527]    10 to 200 µM
O=C(NC1CCN(c2ncnc3[nH]ccc23)CC1)c1ccccc1 [P-0531]    10 to 200 µM

Name the reported IC50 value associated with the compound Cc1cc2c(-c3ccc(NS(=O)(=O)c4ccc(Cl)cc4F)cc3F)ncnc2[nH]1 [P-0352]
0.0001 to 1 µM

Quick one: C[C@H](NC(=O)N1CCN(c2ncnc3[nH]c(-c4ccc(F)cc4)cc23)CC1(C)C)c1cccc(F)c1 [P-0005]
1 to 10 µM

CCc1ccc(S(=O)(=O)NC2CCN(c3ncnc4[nH]c(-c5cnn(C)c5)cc34)CC2)cc1 [P-0676] , same question.
0.0001 to 1 µM

Try this compound next: Cc1nc(-c2cccc(NC(=O)N3CCN(c4ncnc5[nH]ccc45)CC3)c2)no1 [P-0151]
10 to 200 µM

Now try O=C(Nc1ccccc1)N1CCN(c2ncnc3[nH]ccc23)CC1 [P-0205] .
10 to 200 µM

And the next one, O=C(NCc1ccc(Cl)cc1)N1CCN(c2ncnc3[nH]ccc23)CC1 [P-0170] ?
1 to 10 µM

Another compound: O=C(Nc1ccc(Cl)cc1)N1CCN(c2ncnc3[nH]ccc23)CC1 [P-0171]
10 to 200 µM

Another compound to check: COc1ccc(S(=O)(=O)Nc2ccc(-c3ncnc4cc(OCCCN5CCCCC5)c(OC)cc34)c(F)c2)cc1 [P-0255]
0.0001 to 1 µM
